biological target: serum albumin (Homo sapiens); assay: Binding affinity to human serum albumin after 5 mins by RP-UHPLC analysis; format: ADME; details: read-out: PB (converted)
Sequence (P02768 whole entry): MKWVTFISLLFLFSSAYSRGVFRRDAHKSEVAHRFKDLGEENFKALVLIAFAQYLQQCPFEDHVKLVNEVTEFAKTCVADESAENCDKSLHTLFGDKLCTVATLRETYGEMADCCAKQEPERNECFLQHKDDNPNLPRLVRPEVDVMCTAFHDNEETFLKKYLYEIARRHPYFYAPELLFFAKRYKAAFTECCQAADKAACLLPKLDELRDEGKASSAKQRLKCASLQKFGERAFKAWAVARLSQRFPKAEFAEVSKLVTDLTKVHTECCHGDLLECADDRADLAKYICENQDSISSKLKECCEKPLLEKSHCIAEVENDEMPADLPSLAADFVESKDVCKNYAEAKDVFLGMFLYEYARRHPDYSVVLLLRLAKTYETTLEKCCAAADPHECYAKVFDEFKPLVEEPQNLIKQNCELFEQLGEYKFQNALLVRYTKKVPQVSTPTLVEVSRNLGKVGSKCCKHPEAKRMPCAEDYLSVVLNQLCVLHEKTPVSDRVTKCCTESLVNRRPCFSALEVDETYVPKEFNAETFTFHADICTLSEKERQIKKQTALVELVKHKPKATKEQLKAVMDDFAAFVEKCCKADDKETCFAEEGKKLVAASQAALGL
PROPERTY LABEL: fraction unbound at 5 min

[
  {
    "MOLECULE": "C=C(C(=O)OCC)C(O)c1ccccc1Cl (stereo unspecified)",
    "TARGET DESC": "serum albumin (Homo sapiens)",
    "TEST RESULT": 0.35
  }
]

* * *

The reader will find reported inhibition values listed item by item below.
target: NACHT, LRR and PYD domains-containing protein 3 (Homo sapiens); assay: Inhibition of NLRP3 in PMA-differentiated and LPS-primed human THP1 cells assessed as decrease in ATP-induced pyroptosis measured as LDH activity at 10 uM preincubated for 1 hr followed by ATP addition measured after 1 hr by colorimetric assay relative to control
Counter-ions that a name gives are not always drawn.
PROPERTY LABEL: inhibition (%)

[
  {
    "COMPOUND": "C=C(C(=O)OCC)C(OC)c1ccccc1Cl (centres undefined)",
    "TARGET DESC": "NACHT, LRR and PYD domains-containing protein 3 (Homo sapiens)",
    "TEST RESULT": 37.2
  },
  {
    "COMPOUND": "C=C(C(=O)OCC)C(O)c1ccc(Cl)cc1Cl (centres undefined)",
    "TARGET DESC": "NACHT, LRR and PYD domains-containing protein 3 (Homo sapiens)",
    "TEST RESULT": 74.4
  },
  {
    "COMPOUND": "C=C(C(=O)O)C(O)c1ccc(Cl)cc1Cl (centres undefined)",
    "TARGET DESC": "NACHT, LRR and PYD domains-containing protein 3 (Homo sapiens)",
    "TEST RESULT": 40.2
  },
  {
    "COMPOUND": "CCOC(=O)C(C)Cc1ccccc1Cl (centres undefined)",
    "TARGET DESC": "NACHT, LRR and PYD domains-containing protein 3 (Homo sapiens)",
    "TEST RESULT": 3.8
  },
  {
    "COMPOUND": "COC(=O)/C=C/C(=O)OC [DIMETHYL FUMARATE]",
    "TARGET DESC": "NACHT, LRR and PYD domains-containing protein 3 (Homo sapiens)",
    "TEST RESULT": 65.2
  },
  {
    "COMPOUND": "C=C(Cc1ccccc1Cl)C(=O)OCC",
    "TARGET DESC": "NACHT, LRR and PYD domains-containing protein 3 (Homo sapiens)",
    "TEST RESULT": 33.6
  },
  {
    "COMPOUND": "C=C(Cc1ccccc1Cl)C(=O)O",
    "TARGET DESC": "NACHT, LRR and PYD domains-containing protein 3 (Homo sapiens)",
    "TEST RESULT": 35.8
  },
  {
    "COMPOUND": "C=C(C(=O)OCC)C(O)c1ccccc1Cl (centres undefined)",
    "TARGET DESC": "NACHT, LRR and PYD domains-containing protein 3 (Homo sapiens)",
    "TEST RESULT": 80.9
  },
  {
    "COMPOUND": "CC(Cc1ccccc1Cl)C(=O)O (centres undefined)",
    "TARGET DESC": "NACHT, LRR and PYD domains-containing protein 3 (Homo sapiens)",
    "TEST RESULT": 5.2
  }
]
